target_entity: TARP γ8 dependent AMPA receptor (GluA1o-g8 fusion channel) (Homo sapiens (Human), UniProt P42261+Q8WXS5)
Sequence (P42261 other isoform, or with tags, fused parts or gaps): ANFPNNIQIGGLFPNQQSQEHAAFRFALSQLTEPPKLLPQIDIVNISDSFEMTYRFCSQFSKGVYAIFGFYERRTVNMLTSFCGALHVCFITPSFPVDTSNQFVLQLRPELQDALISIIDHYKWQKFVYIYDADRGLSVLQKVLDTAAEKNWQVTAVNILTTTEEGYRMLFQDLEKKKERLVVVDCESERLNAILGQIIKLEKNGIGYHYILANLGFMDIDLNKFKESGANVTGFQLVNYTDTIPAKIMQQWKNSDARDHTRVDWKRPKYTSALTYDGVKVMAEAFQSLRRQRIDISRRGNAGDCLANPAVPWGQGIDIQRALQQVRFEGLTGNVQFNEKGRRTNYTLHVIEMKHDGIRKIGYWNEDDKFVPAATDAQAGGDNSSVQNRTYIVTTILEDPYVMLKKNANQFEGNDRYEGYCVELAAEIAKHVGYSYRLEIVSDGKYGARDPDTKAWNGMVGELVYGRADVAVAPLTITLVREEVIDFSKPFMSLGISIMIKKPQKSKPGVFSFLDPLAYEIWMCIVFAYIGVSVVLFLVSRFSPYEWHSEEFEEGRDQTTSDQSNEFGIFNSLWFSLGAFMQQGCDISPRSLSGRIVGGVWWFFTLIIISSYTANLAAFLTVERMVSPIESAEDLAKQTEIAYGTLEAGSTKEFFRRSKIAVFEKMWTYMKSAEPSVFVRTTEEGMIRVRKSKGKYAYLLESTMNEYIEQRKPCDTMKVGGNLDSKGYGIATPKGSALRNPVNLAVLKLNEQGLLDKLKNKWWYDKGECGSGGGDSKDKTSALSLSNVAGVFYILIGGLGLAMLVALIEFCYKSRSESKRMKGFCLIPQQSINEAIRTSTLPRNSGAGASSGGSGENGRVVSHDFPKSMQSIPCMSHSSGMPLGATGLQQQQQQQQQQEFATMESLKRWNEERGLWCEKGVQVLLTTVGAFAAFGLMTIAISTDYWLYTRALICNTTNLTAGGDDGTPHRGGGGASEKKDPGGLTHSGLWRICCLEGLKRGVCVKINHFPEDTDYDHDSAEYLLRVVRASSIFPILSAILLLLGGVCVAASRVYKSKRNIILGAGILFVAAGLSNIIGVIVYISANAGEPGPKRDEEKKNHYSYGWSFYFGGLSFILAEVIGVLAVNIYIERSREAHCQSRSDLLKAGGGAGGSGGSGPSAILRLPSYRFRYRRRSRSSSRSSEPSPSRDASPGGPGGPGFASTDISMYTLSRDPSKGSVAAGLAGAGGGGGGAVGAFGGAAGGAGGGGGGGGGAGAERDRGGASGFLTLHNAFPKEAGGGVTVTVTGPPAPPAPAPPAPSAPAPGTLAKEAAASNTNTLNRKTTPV
method_notes: Calcium flux assay (FLIPR), HEK293 cells expressing GRIA1o-CACNG8 fusion
Assay type: cell-based
applied_conditions: inhibition of calcium flux after 15 μM glutamate, read-out: GluR1-γ8 pIC50 (converted)
Returns: string. Value is satisfied if measured IC50 is below 200 nM, and not satisfied if it is greater than or equal to it.

Request: Strictly below 200 nM: is that where IC50 of Cc1cccc(-c2ccc3[nH]c(=O)[nH]c3c2)c1Cl [Example 64] sits?
Result: satisfied

Request: What about this compound? CC(C)Oc1cccc(OC(F)(F)F)c1-c1ccc2[nH]c(=O)[nH]c2c1 [Example 88]
Result: satisfied

Request: What about this compound? Cc1c(C(=O)N2CCOCC2)cccc1-c1ccc2[nH]c(=O)[nH]c2c1 [Example 82]
Result: not satisfied

Request: What about this compound? COc1cccc(OC(C)C(F)(F)F)c1-c1ccc2[nH]c(=O)[nH]c2c1 (racemic) [Example 121]
Result: satisfied

Request: What about this compound? N#CCc1cccc(Br)c1-c1ccc2[nH]c(=O)[nH]c2c1 [Example 132]
Result: satisfied

Request: What about this compound? O=c1[nH]c2ccc(-c3c(Cl)cccc3OC(F)F)cc2[nH]1 [Example 94]
Result: satisfied

Request: What about this compound? Cc1cc(-c2c(Cl)cccc2OC(F)(F)F)cc2[nH]c(=O)[nH]c12 [Example 211]
Result: satisfied

Request: What about this compound? N#CCc1cccc(C2CC2)c1-c1ccc2[nH]c(=O)[nH]c2c1 [Example 138]
Result: satisfied

Request: What about this compound? CC(C)Oc1ccc(Cl)cc1-c1ccc2[nH]c(=O)[nH]c2c1 [Example 16]
Result: not satisfied

Request: What about this compound? N#Cc1ccc(OC(F)(F)F)c(-c2ccc3[nH]c(=O)[nH]c3c2)c1Cl [Example 208]
Result: satisfied

Request: What about this compound? O=c1[nH]c2ccc(-c3cccc4cccnc34)cc2[nH]1 [Example 58]
Result: not satisfied

Request: What about this compound? COc1cccc(OCc2ccc(F)cc2)c1-c1ccc2[nH]c(=O)[nH]c2c1 [Example 106]
Result: satisfied

Request: What about this compound? O=c1[nH]c2ccc(-c3c(Cl)cccc3OCC(F)F)cc2[nH]1 [Example 96]
Result: satisfied

Request: What about this compound? O=c1[nH]c2ccc(-c3ccccc3OCC3CC3)cc2[nH]1 [Example 13]
Result: not satisfied

Request: What about this compound? COc1cccc(Cl)c1-c1ccc2[nH]c(=O)[nH]c2c1 [Example 20]
Result: not satisfied

Request: What about this compound? N#CCc1cccc(Cl)c1-c1ccc2[nH]c(=O)[nH]c2c1 [Example 124]
Result: satisfied

Request: What about this compound? Cc1c(-c2ccc3[nH]c(=O)sc3c2)cccc1-c1noc(C2CC2)n1 [Example 74]
Result: not satisfied

Request: What about this compound? COC(=O)c1cccc(C)c1-c1ccc2[nH]c(=O)[nH]c2c1 [Example 45]
Result: not satisfied

Request: What about this compound? O=c1[nH]c2ccc(-c3cccc(-c4nnc(C5CC5)o4)c3Cl)cc2[nH]1 [Example 196]
Result: not satisfied

Request: What about this compound? COC(=O)c1ccc(Cl)c(-c2ccc3[nH]c(=O)[nH]c3c2)c1 [Example 44]
Result: not satisfied

Request: What about this compound? O=c1[nH]c2ccc(-c3c(Cl)cccc3OCc3ccccc3)cc2[nH]1 [Example 99]
Result: satisfied

Request: What about this compound? N#CCc1ccccc1-c1ccc2[nH]c(=O)[nH]c2c1 [Example 41]
Result: not satisfied

Request: What about this compound? Cc1c(CN2CCOCC2C)cccc1-c1ccc2[nH]c(=O)[nH]c2c1 (stereo in doubt) [Example 152]
Result: not satisfied

Request: What about this compound? Cc1cccc(C#N)c1-c1ccc2[nH]c(=O)[nH]c2c1 [Example 38]
Result: not satisfied

====

So I've got a bunch of molecules here, and I need their IC50 values.
target_entity: TARP γ8 dependent AMPA receptor (GluA1o-g8 fusion channel) (Homo sapiens (Human), UniProt P42261+Q8WXS5)
method_notes: Calcium flux assay (FLIPR), HEK293 cells expressing GRIA1o-CACNG8 fusion
Assay type: cell-based
applied_conditions: inhibition of calcium flux after 15 μM glutamate, read-out: GluR1-γ8 pIC50 (converted)
Write down the numeric answer in nM and omit the unit.

Request: For the molecule O=C(c1ccc(Cl)c(-c2ccc3[nH]c(=O)[nH]c3c2)c1)N1CCCCC1 [Example 85] , what IC50 is on record?
Result: 5010

Request: What about this molecule? O=c1[nH]c2ccc(-c3c(Cl)cccc3OCC3CC3)cc2[nH]1 [Example 92]
Result: 10

Request: What about this molecule? O=c1[nH]c2ccc(-c3c(Cl)ccc(CN4CCOCC4)c3Cl)cc2[nH]1 [Example 139]
Result: 251

Request: What about this molecule? Cn1cc(-c2cccc(Cl)c2-c2ccc3[nH]c(=O)[nH]c3c2)cn1 [Example 173]
Result: 398

Request: What about this molecule? CC(C)(C)COc1cccc(Cl)c1-c1ccc2[nH]c(=O)[nH]c2c1 [Example 98]
Result: 50.1

Request: What about this molecule? O=c1[nH]c2ccc(-c3cccc(C(F)(F)F)c3Cl)cc2[nH]1 [Example 61]
Result: 39.8

Request: What about this molecule? Cc1c(-c2cccc(Cl)c2-c2ccc3[nH]c(=O)[nH]c3c2)cnn1C [Example 177]
Result: 794

Request: What about this molecule? COc1cccc(OCc2ccccc2)c1-c1ccc2[nH]c(=O)[nH]c2c1 [Example 105]
Result: 39.8

Request: What about this molecule? Cc1c(CN2CCN(C(=O)OC(C)(C)C)CC2)cccc1-c1ccc2[nH]c(=O)[nH]c2c1 [Example 155]
Result: 316

Request: What about this molecule? Cc1noc(-c2cccc(-c3ccc4[nH]c(=O)sc4c3)c2C)n1 [Example 204]
Result: 2510

Request: What about this molecule? N#Cc1cccc(Cl)c1-c1ccc2[nH]c(=O)[nH]c2c1 [Example 56]
Result: 631

Request: What about this molecule? COC(=O)c1cccc(-c2ccc3[nH]c(=O)[nH]c3c2)c1OC [Example 48]
Result: 6310

Request: What about this molecule? N#CCc1cccc(OC(F)(F)F)c1-c1ccc2[nH]c(=O)[nH]c2c1 [Example 123]
Result: 15.8

====

target_entity: TARP γ8 dependent AMPA receptor (GluA1o-g8 fusion channel) (Homo sapiens (Human), UniProt P42261+Q8WXS5)
method_notes: Calcium flux assay (FLIPR), HEK293 cells expressing GRIA1o-CACNG8 fusion
Format: cell-based
applied_conditions: inhibition of calcium flux after 15 μM glutamate, read-out: GluR1-γ8 pIC50 (converted)
Returns: string. Value is TRUE if measured IC50 is below 200 nM, and FALSE if it is greater than or equal to it.

Request: Strictly below 200 nM: is that where IC50 of `Cc1noc(C)c1-c1cccc(Cl)c1-c1ccc2[nH]c(=O)[nH]c2c1` sits?
Result: FALSE

Request: What about this compound? `N#Cc1ccc(Cl)c(-c2ccc3[nH]c(=O)[nH]c3c2)c1`
Result: FALSE

Request: What about this compound? `O=c1[nH]c2ccc(-c3cccc(-c4ccncc4)c3Cl)cc2[nH]1`
Result: TRUE

Request: What about this compound? `Cc1c(-c2ccc3[nH]c(=O)[nH]c3c2)cccc1-c1nc(C(F)(F)F)no1`
Result: TRUE

Request: What about this compound? `Cn1cc(-c2cccc(-c3ccc4[nH]c(=O)[nH]c4c3)c2Cl)cn1`
Result: TRUE

Request: What about this compound? `Cc1nnc(-c2cccc(-c3ccc4[nH]c(=O)[nH]c4c3)c2C)o1`
Result: FALSE

Request: What about this compound? `O=c1[nH]c2ccc(-c3ccccc3C(F)(F)F)cc2[nH]1`
Result: FALSE

Request: What about this compound? `COc1cccc(OC(C)C)c1-c1ccc2[nH]c(=O)sc2c1`
Result: TRUE

Request: What about this compound? `CC(C)Oc1ccccc1-c1ccc2[nH]c(=O)[nH]c2c1`
Result: FALSE

Request: What about this compound? `O=c1[nH]c2ccc(-c3cccc(-c4nnco4)c3Cl)cc2[nH]1`
Result: FALSE

====

So I've got a bunch of molecules here, and I need their IC50 values.
target_entity: TARP γ8 dependent AMPA receptor (GluA1o-g8 fusion channel) (Homo sapiens (Human), UniProt P42261+Q8WXS5)
method_notes: Calcium flux assay (FLIPR), HEK293 cells expressing GRIA1o-CACNG8 fusion
Type: cell-based
applied_conditions: inhibition of calcium flux after 15 μM glutamate, read-out: GluR1-γ8 pIC50 (converted)
Write down the numeric answer in nM and omit the unit.

Request: For the molecule `O=c1[nH]c2ccc(-c3ccccc3Br)cc2[nH]1` , what IC50 is on record?
Result: 251

Request: What about this molecule? `Cc1cccc(Cl)c1-c1ccc2[nH]c(=O)[nH]c2c1`
Result: 63.1

Request: What about this molecule? `CC(C)(C)Oc1cccc(Cl)c1-c1ccc2[nH]c(=O)[nH]c2c1`
Result: 158
